FYI, the data here is from PubChem BioAssay (NCATS).

- assay_method_text: Viability qHTS for spleen associated tyrosine kinase inhibitor (SYKi) drug resistant MV4-11 cells (AID 1963824); further: nearly all actives have a fitted effect of over 35% in size
- assay_context: SYKi-resistant MV4-11 viability, CellTiter-Glo, 72 h; series mostly up to 45 µM
Records with an inconclusive call do not appear. The source made the active and inactive calls. The call rests on the fitted dose curve; in most records, active means well fitted cell-killing curve with a large enough effect; inconclusive means small, poorly fitted or top-dose-only effect, or effect the other way; inactive means no such curve, though single readings can be large or run the other way.
Field 'call' accepts active, inactive

Solved cases (10 shown):
Cc1[nH]c2ccccc2c1CCNCc1ccc(/C=C/C(=O)NO)cc1 :: active
Nc1ncnc2c1C(=O)N(c1ccc(C3CCC(CC(=O)O)CC3)cc1)CCO2 (stereo not given) :: inactive
C=C1C(=O)O[C@@H]2[C@H]3O[C@]3(C)CC/C=C(\C)CC[C@@H]12 :: active
c1ccc(-c2ccc(CNc3nc(-c4ccccn4)nnc3-c3ccccc3)cc2)cc1 :: active
CC1(C)CCC2=C(O1)c1ccccc1C(=O)C2=O :: active
CC(=O)Oc1c(C)c(C)c2c(c1C)CC[C@@](C)(CCC[C@H](C)CCC[C@H](C)CCCC(C)C)O2 :: inactive
CC1(C)CC[C@]2(C(=O)O)CC[C@]3(C)C(=CCC4[C@@]5(C)C[C@@H](O)[C@H](O)[C@@](C)(CO)C5CC[C@]43C)C2C1 (stereo not given in full) :: active
CCCCCCCOc1ccc(CCC(N)(CO)CO)cc1C(F)(F)F :: active
COc1c2c(c(C)c3c1C(=O)OC3)OC1(C)CC(O)C(C(C)(C)O)C(C)(CCC(=O)O)C1C2 (stereo not given) :: active
CCOC(=O)[C@H](CCc1ccccc1)CC1(C(=O)N[C@H]2CCc3ccccc3N(CC(=O)O)C2=O)CCCC1 :: active

Challenge: Which outcome was entered for the compound CC(C)(C)NC(=O)c1cncn1C1CCN(c2ccc(-c3nnc(C(F)(F)F)o3)cn2)CC1 in this test?
Response given: active

Challenge: Hello, I am checking results. What call was entered for CCCn1c(=O)c2[nH]c(C34CC5CC3C[C@@H](C5)C4)nc2n(CCC)c1=O ?
Response given: active
